Assign log10 of IC50 to each entry below.
System: cells of the A549 human line (non-small-cell lung cancer)
Assay: Cytotoxicity test: inhibition of growth of A549 cells (ATP-Lite luminescence)
Assay type: cell-based
Conditions: Homo sapiens, 48 hours incubation
Method: The test used is the inhibition of growth of cells of the A549 human line (non-small-cell lung cancer): The A549 tumour cells are seeded in a 96-well plate in RPMI 1640 medium without phenol red (Seromed) to which 5% of foetal calf serum is added (100 μl/well, 125×10^4 cells/ml). […] The results, expressed as IC50 (M), are collated in Table I and show the cytotoxicity of the compounds.
Please be aware that the numbers have been log10-transformed from IC50 in nM.

Task: Entry COc1cc(C2c3cc4c(cc3C(NC(=O)CNCCCCN)C3COC(=O)C23)OCO4)cc(OC)c1O (centres unmarked) has what log10 of IC50?
Result: 1.90

Task: Return reported log10 of IC50; argument: COc1cc(C2c3cc4c(cc3C(NC(=O)CN)C3COC(=O)C23)OCO4)cc(OC)c1O (centres unmarked)
Result: 3.00

Task: Item under review: COc1cc(C2c3cc4c(cc3C(NC(=O)CNCCCNCCCCNCCCN)C3COC(=O)C23)OCO4)cc(OC)c1O (centres unmarked) . Reported log10 of IC50?
Result: 2.30

Task: Name the recorded log10 of IC50 for CCC1=C[C@@H]2CN(C1)Cc1c([nH]c3ccccc13)[C@@](C(=O)OC)(c1cc3c(cc1OC)N(C)[C@H]1[C@@](O)(C(=O)OC)[C@H](OC(C)=O)[C@]4(CC)C=CCN5CC[C@]31[C@@H]54)C2 [Vinorelbine, reference compound] .
Result: 0.57

Task: What measured log10 of IC50 goes with COc1cc(C2c3cc4c(cc3C(NC(=O)CNCCN(C)C)C3COC(=O)C23)OCO4)cc(OC)c1O (centres unmarked) ?
Result: 3.78

====

Counter-ions that a name gives are not always drawn.
Provide the reported melting point of each item.
Please reply with the bare figure in °C and do not write the unit itself.

Task: Which melting point is reported for this compound? COc1cc(C2c3cc4c(cc3C(NC(=O)CNCCN)C3COC(=O)C23)OCO4)cc(OC)c1O (stereo not shown) (as salt: hydrochloride)
Result: 236

Task: // lookup melting point for COc1cc(C2c3cc4c(cc3C(NC(=O)CNCCCNCCCCNCCCN)C3COC(=O)C23)OCO4)cc(OC)c1OC (stereo not shown) (as salt: hydrochloride)
Result: 209

Task: What value of melting point has been recorded for this entry: COc1cc(C2c3cc4c(cc3C(NC(=O)CNCCCN)C3COC(=O)C23)OCO4)cc(OC)c1O (stereo not shown) (as salt: hydrochloride)
Result: 219

Task: Name the recorded melting point for COc1cc(C2c3cc4c(cc3C(NC(=O)CN)C3COC(=O)C23)OCO4)cc(OC)c1O (stereo not shown) (as salt: hydrochloride) .
Result: 236

Task: # get_value(readout='melting point', item= COc1cc(C2c3cc4c(cc3C(NC(=O)CNCCCCNCCCN)C3COC(=O)C23)OCO4)cc(OC)c1O (stereo not shown) (as salt: hydrochloride) )
Result: 199

Task: Request the reported melting point associated with COc1cc(C2c3cc4c(cc3C(NC(=O)CNCCCNCCCCN)C3COC(=O)C23)OCO4)cc(OC)c1O (stereo not shown) (as salt: hydrochloride)
Result: 255

====

System: cells of the A549 human line (non-small-cell lung cancer)
Test: Cytotoxicity test: inhibition of growth of A549 cells (ATP-Lite luminescence)
Format: cell-based
Details: 48 hours incubation
Property Label: IC50 (nM)
Give a bare numeral; the unit nM is implied.

Task: I have this compound here, COc1cc(C2c3cc4c(cc3C(NC(=O)CN(C)C)C3COC(=O)C23)OCO4)cc(OC)c1O (stereo not shown) [Example 12] , and I need its recorded IC50.
Result: 200

====

Record form. Attribute: solubility. Fill in for each entry.
Test: Solubility in water of the hydrochloride
Assay type: physicochemical
Details: water-soluble hydrochloride
The reply should be a number in mg/mL, with the unit left off.

Task: Look at this compound and give its reported solubility. COc1cc(C2c3cc4c(cc3C(NC(=O)CNCCCCN)C3COC(=O)C23)OCO4)cc(OC)c1O (stereo not drawn)
Result: 100

Task: Give its solubility value. Item: COc1cc(C2c3cc4c(cc3C(NC(=O)CNCCN(C)C)C3COC(=O)C23)OCO4)cc(OC)c1O (stereo not drawn)
Result: 100

Task: Param item = COc1cc(C2c3cc4c(cc3C(NC(=O)CNCCCNCCCCNCCCN)C3COC(=O)C23)OCO4)cc(OC)c1O (stereo not drawn) ; retrieve measured solubility.
Result: 50

====

Test system: DNA in A549 cells
Experiment: Comets test for detection of breakages of the DNA in cellulo
Format: cell-based, human
Conditions: 1 hour with 10 μM compound
Criterion: TM (mean Tail Moment with respect to the TM of etoposide, taken to be unity) strictly under 1. Met: yes (1). Not met: no (0).

Task: Please check: TM (mean Tail Moment with respect to the TM of etoposide, taken to be unity) for COc1cc(C2c3cc4c(cc3C(NC(=O)CN(C)C)C3COC(=O)C23)OCO4)cc(OC)c1O (stereo not drawn) , strictly under 1 or not?
Result: no (0)

Task: Does the reported TM (mean Tail Moment with respect to the TM of etoposide, taken to be unity) of the following molecule sit strictly below 1? COc1cc(C2c3cc4c(cc3C(NC(=O)CN)C3COC(=O)C23)OCO4)cc(OC)c1O (stereo not drawn)
Result: no (0)

Task: Just wondering, is TM (mean Tail Moment with respect to the TM of etoposide, taken to be unity) of COc1cc(C2c3cc4c(cc3C(NC(=O)CNCCCCN)C3COC(=O)C23)OCO4)cc(OC)c1O (stereo not drawn) below 1?
Result: no (0)

Task: Please check: TM (mean Tail Moment with respect to the TM of etoposide, taken to be unity) for COc1cc(C2c3cc4c(cc3C(NC(=O)CNCCCNCCCCNCCCN)C3COC(=O)C23)OCO4)cc(OC)c1O (stereo not drawn) , strictly under 1 or not?
Result: no (0)

Task: Below 1 on TM (mean Tail Moment with respect to the TM of etoposide, taken to be unity)? Entry COc1cc(C2c3cc4c(cc3C(NC(=O)CNCCN(C)C)C3COC(=O)C23)OCO4)cc(OC)c1O (stereo not drawn)
Result: no (0)

Task: A record lists CCC1=C[C@@H]2CN(C1)Cc1c([nH]c3ccccc13)[C@@](C(=O)OC)(c1cc3c(cc1OC)N(C)[C@H]1[C@@](O)(C(=O)OC)[C@H](OC(C)=O)[C@]4(CC)C=CCN5CC[C@]31[C@@H]54)C2 [Vinorelbine, reference compound] . Is its TM (mean Tail Moment with respect to the TM of etoposide, taken to be unity) below 1?
Result: yes (1)
